Origin of measurements: patent US20230027361A1

TARGET_OF_ASSAY: PRMT5-MEP50 (Homo sapiens, UniProt O14744)
Sequence (O14744 whole entry): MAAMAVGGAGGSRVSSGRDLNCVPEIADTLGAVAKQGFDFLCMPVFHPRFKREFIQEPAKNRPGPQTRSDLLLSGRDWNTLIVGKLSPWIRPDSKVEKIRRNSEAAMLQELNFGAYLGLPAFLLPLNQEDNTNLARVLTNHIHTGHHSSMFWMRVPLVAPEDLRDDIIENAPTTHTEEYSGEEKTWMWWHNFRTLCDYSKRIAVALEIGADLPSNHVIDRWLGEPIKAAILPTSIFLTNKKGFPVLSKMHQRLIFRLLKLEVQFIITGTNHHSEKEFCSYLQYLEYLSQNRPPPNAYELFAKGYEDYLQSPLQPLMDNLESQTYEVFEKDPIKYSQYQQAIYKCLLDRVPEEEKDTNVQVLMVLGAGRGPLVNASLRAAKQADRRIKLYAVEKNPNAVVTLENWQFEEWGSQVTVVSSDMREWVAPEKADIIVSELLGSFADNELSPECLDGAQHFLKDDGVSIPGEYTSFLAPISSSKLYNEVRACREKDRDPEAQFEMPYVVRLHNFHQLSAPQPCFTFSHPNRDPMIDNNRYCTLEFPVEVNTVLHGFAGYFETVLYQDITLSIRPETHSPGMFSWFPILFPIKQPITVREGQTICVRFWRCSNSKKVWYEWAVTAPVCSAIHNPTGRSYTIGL
Sequence (Q9BQA1 whole entry partner): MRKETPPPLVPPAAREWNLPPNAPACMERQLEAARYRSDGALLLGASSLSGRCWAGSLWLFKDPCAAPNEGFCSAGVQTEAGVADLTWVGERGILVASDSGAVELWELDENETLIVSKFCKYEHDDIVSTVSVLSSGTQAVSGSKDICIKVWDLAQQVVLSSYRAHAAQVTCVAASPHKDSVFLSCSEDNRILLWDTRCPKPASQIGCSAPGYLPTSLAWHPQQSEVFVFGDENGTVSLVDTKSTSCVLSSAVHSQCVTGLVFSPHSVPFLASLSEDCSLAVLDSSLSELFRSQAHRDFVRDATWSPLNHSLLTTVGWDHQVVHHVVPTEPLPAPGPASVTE
ASSAY_SUMMARY: PRMT5 Assay (PRMT5 biochemical assay)
EXPERIMENTAL_CONTEXT: PRMT5 biochemical assay; read-out: PRMT5 IC50

SMILES_REPRESENTATION | TARGET_OF_ASSAY | IC50
CNc1ccc2ccc(CC[C@H]3C[C@@H](n4cc(CO)c5c(N)ncnc54)[C@H](O)[C@@H]3O)cc2n1 | PRMT5-MEP50 (Homo sapiens, UniProt O14744) | < 10 nM
CNc1ccc2ccc(OC[C@H]3O[C@@H](n4cc(C5CCCC5)c5c(N)ncnc54)C[C@@H]3O)cc2n1 | PRMT5-MEP50 (Homo sapiens, UniProt O14744) | > 1000 nM
Nc1ncnc2c1ccn2[C@@H]1C[C@H](CCc2cccc(=O)[nH]2)[C@@H](O)[C@H]1O | PRMT5-MEP50 (Homo sapiens, UniProt O14744) | 100 to 1000 nM
Nc1ncnc2c1ccn2[C@@H]1O[C@H](CCc2ccc3ccc(N4CCCC4)nc3c2)[C@@H](O)[C@H]1O | PRMT5-MEP50 (Homo sapiens, UniProt O14744) | 100 to 1000 nM
CCNc1ccc2ccc(OC[C@H]3C[C@@H](n4ccc5c(N)ncnc54)[C@H](O)[C@@H]3O)cc2n1 | PRMT5-MEP50 (Homo sapiens, UniProt O14744) | < 10 nM
Nc1ncnc2c1c(Br)cn2[C@@H]1O[C@H](COc2ccc3ccc(N4CCCC4)nc3c2)[C@@H](O)[C@H]1O | PRMT5-MEP50 (Homo sapiens, UniProt O14744) | 10 to 100 nM
Nc1ccc2ccc(CC[C@H]3C[C@@H](n4cc([C@@H]5CCOC5)c5c(N)ncnc54)[C@H](O)[C@@H]3O)cc2n1 | PRMT5-MEP50 (Homo sapiens, UniProt O14744) | < 10 nM
CCNc1ccc2ccc(OC[C@H]3O[C@@H](n4cc(Cl)c5c(N)ncnc54)[C@@H](F)[C@@H]3O)cc2n1 | PRMT5-MEP50 (Homo sapiens, UniProt O14744) | 10 to 100 nM
Nc1ncnc2c1ccn2[C@@H]1C[C@H](CCc2ccc3ccc(N4CCCC4)nc3c2)[C@@H](O)[C@H]1O | PRMT5-MEP50 (Homo sapiens, UniProt O14744) | 10 to 100 nM
Nc1ncnc2c1ccn2[C@@H]1C[C@H](CCc2ccc3cn[nH]c3c2)[C@@H](O)[C@H]1O | PRMT5-MEP50 (Homo sapiens, UniProt O14744) | 10 to 100 nM
CNc1ccc2ccc(CC[C@H]3O[C@@H](n4cc(C5CCCC5)c5c(N)ncnc54)[C@H](O)[C@@H]3O)cc2n1 | PRMT5-MEP50 (Homo sapiens, UniProt O14744) | < 10 nM
CNc1ccc2cnc(OC[C@H]3O[C@@H](n4cc(Br)c5c(N)ncnc54)[C@H](O)[C@@H]3O)nc2n1 | PRMT5-MEP50 (Homo sapiens, UniProt O14744) | 100 to 1000 nM
Nc1ncnc2c1ccn2[C@@H]1O[C@H](CCC2CCNCC2)[C@@H](O)[C@@H]1F | PRMT5-MEP50 (Homo sapiens, UniProt O14744) | > 1000 nM
NC(=O)Nc1cccc(CC[C@H]2C[C@@H](n3ccc4c(N)ncnc43)[C@H](O)[C@@H]2O)c1 | PRMT5-MEP50 (Homo sapiens, UniProt O14744) | 100 to 1000 nM
Nc1ccc2ccc(OC[C@H]3O[C@H](n4ccc5c(N)ncnc54)[C@H](O)[C@@H]3O)cc2n1 | PRMT5-MEP50 (Homo sapiens, UniProt O14744) | 100 to 1000 nM

----------
Test system: MOLM-13 cells
ASSAY_SUMMARY: MOLM-13 48 Hour Cell Proliferation Assay
Format: cell-based
EXPERIMENTAL_CONTEXT: Homo sapiens

COMPOUND | IC50
CCNc1ccc2ccc(OC[C@H]3O[C@@H](n4cc(Cl)c5c(N)ncnc54)[C@@H](F)[C@@H]3O)cc2n1 [I-234] | 1 to 10 µM
CCc1cc(N(C)C2CC2)c2ccc(OC[C@H]3O[C@@H](n4cc(-c5ccn(C)n5)c5c(N)ncnc54)C[C@@H]3O)cc2n1 [I-160] | 1 to 10 µM
Nc1ncnc2c1c(-n1ccc(C(F)(F)F)n1)cn2[C@H]1C[C@H](O)[C@@H](COc2ccc3ccc(N4CCC4)nc3c2)O1 [I-178] | 1 to 10 µM
Nc1ncnc2c1ccn2[C@H]1C[C@H](O)[C@@H](COc2ccc3ccc(N4CCC4)nc3c2)O1 [I-165] | > 10 µM
Cn1ccc(-c2cn([C@H]3C[C@H](O)[C@@H](COc4ccc5ccc(N6CCC6)nc5c4)O3)c3ncnc(N)c23)n1 [I-164] | 1 to 10 µM
CNc1ccc2ccc(OC[C@H]3O[C@@H](n4cc(-c5ccc(C)o5)c5c(N)ncnc54)[C@@H](F)[C@@H]3O)cc2n1 [I-148] | < 1 µM
CCc1cc(N(C)CC2CC2)c2ccc(OC[C@H]3O[C@@H](n4cc(-c5ccn(C)n5)c5c(N)ncnc54)[C@@H](F)[C@@H]3O)cc2n1 [I-155] | 1 to 10 µM

----------
TARGET_OF_ASSAY: METTL3/METTL14 (Homo sapiens)
ASSAY_SUMMARY: METTL3-14 Standard Enzyme Assay (METTL3 biochemical assay)
EXPERIMENTAL_CONTEXT: METTL3 biochemical assay; read-out: METTL3 IC50
Listing of recorded IC50 by entry.
VALUE_KIND: IC50

SMILES_REPRESENTATION | VALUE_KIND | RESULT
CNc1ncnc2c1ccn2[C@@H]1C[C@H](CCc2ccc3ccc(N)nc3c2)[C@@H](O)[C@H]1O | IC50 | > 1000 nM
CNc1ccc2ccc(OC[C@H]3O[C@@H](n4cc(Br)c5c(N)ncnc54)C[C@@H]3O)cc2n1 | IC50 | < 10 nM
Nc1ccc2ccc(CC[C@H]3C[C@@H](n4ccc5c(N)ncnc54)[C@H](O)[C@@H]3O)cc2c1 | IC50 | > 1000 nM
Nc1ccc2cc(CC[C@H]3C[C@@H](n4ccc5c(N)ncnc54)[C@H](O)[C@@H]3O)ccc2n1 | IC50 | 100 to 1000 nM
Nc1ncnc2c1ccn2[C@H]1C[C@H](O)[C@@H](COc2ccc3ccc(N4CC(N)C4)nc3c2)O1 | IC50 | 100 to 1000 nM
Nc1ncnc2c1ccn2[C@@H]1C[C@H](CCc2ccc3ccc(Nc4ccccc4)nc3c2)[C@@H](O)[C@H]1O | IC50 | > 1000 nM
CN(C)Cc1cccc(OC[C@H]2O[C@@H](n3cc(Br)c4c(N)ncnc43)[C@@H](F)[C@@H]2O)c1 | IC50 | > 1000 nM

----------
TARGET_OF_ASSAY: METTL3/METTL14 (Homo sapiens, UniProt Q86U44)
Sequence (Q86U44 whole entry, species assumed): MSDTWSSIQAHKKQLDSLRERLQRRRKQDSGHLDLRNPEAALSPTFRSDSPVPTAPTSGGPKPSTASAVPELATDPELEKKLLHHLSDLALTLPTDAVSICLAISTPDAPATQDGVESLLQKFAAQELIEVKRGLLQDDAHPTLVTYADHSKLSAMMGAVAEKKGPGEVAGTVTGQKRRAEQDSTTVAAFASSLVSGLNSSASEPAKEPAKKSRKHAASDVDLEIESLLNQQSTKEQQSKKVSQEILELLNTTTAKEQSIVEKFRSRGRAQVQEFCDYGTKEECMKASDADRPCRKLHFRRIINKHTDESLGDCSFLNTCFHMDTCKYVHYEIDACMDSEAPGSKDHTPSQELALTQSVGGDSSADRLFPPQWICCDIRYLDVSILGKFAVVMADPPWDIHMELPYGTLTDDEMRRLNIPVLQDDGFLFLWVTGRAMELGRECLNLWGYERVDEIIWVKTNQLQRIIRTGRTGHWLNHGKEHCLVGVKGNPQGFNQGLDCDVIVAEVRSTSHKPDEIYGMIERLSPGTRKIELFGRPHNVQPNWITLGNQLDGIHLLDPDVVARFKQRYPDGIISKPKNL
Sequence (Q9HCE5 whole entry partner, species assumed): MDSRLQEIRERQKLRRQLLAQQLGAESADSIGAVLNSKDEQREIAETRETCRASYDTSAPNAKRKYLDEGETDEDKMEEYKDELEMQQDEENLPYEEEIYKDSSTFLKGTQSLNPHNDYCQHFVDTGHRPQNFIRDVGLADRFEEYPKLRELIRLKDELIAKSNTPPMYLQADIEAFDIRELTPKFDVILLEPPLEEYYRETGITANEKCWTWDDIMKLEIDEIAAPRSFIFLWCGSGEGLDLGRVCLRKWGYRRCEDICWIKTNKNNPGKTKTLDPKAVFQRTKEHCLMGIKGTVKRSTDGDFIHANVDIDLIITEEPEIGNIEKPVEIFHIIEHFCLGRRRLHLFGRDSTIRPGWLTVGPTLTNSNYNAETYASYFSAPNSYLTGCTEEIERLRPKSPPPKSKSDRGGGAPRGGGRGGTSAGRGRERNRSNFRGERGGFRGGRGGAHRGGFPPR
ASSAY_SUMMARY: METTL3-14 Standard Enzyme Assay (METTL3 biochemical assay)

MOLECULE | IC50
Nc1ncnc2c1c(-n1cccn1)cn2C1CC(CCc2ccc3ccc(NC4CCC4)nc3c2)C(O)C1F (stereo not shown) [I-235] | 100 to 1000 nM
Cn1ccc(-c2cn([C@@H]3O[C@H](COc4ccc5ccc(N6CC(O)C6)nc5c4)[C@@H](O)[C@@H]3F)c3ncnc(N)c23)n1 [I-171] | < 10 nM
COCCN(C)C(=O)c1cn([C@@H]2O[C@H](COc3ccc4ccc(N5CCC5)nc4c3)[C@@H](O)[C@@H]2F)c2ncnc(N)c12 [I-217] | 10 to 100 nM
CNc1ccc2sc(CC[C@H]3O[C@@H](n4cc(-c5ccn(C)n5)c5c(N)ncnc54)[C@@H](F)[C@@H]3O)cc2n1 [I-190] | < 10 nM
Cn1ccc(-c2cn([C@@H]3O[C@H](COc4ccc5ccc(NC6CCC6)nc5c4)[C@@H](O)[C@@H]3F)c3ncnc(N)c23)n1 [I-183] | < 10 nM
Cc1coc(-c2cn([C@@H]3O[C@H](COc4ccc5ccc(N6CCC6)nc5c4)[C@@H](O)[C@@H]3F)c3ncnc(N)c23)n1 [I-220] | < 10 nM
Nc1ncnc2c1c(-c1cnccn1)cn2[C@@H]1O[C@H](COc2ccc3ccc(N4CCC4)nc3c2)[C@@H](O)[C@@H]1F [I-215] | < 10 nM

----------
Listing of recorded IC50 by entry.
TARGET_OF_ASSAY: METTL3/METTL14 (Homo sapiens)
ASSAY_SUMMARY: METTL3-14 Standard Enzyme Assay (METTL3 biochemical assay)
EXPERIMENTAL_CONTEXT: read-out: METTL3 IC50; METTL3 biochemical assay
VALUE_KIND: IC50

SMILES_REPRESENTATION | TARGET_OF_ASSAY | RESULT
CCCC(=O)c1cn([C@@H]2O[C@H](COc3ccc4ccc(NC)nc4c3)[C@@H](O)[C@@H]2F)c2ncnc(N)c12 | METTL3/METTL14 (Homo sapiens) | 10 to 100 nM
CNc1ccc2ccc(OC[C@H]3O[C@@H](n4cc(-c5cccnc5)c5c(N)ncnc54)[C@@H](F)[C@@H]3O)cc2n1 | METTL3/METTL14 (Homo sapiens) | 10 to 100 nM
CNc1ccc2ccc(OC[C@H]3O[C@@H](n4cc(-c5ccc(C)o5)c5c(N)ncnc54)[C@@H](F)[C@@H]3O)cc2n1 | METTL3/METTL14 (Homo sapiens) | < 10 nM
CCn1ccc(-c2cn([C@@H]3O[C@H](COc4ccc5ccc(NC)nc5c4)[C@@H](O)[C@@H]3F)c3ncnc(N)c23)n1 | METTL3/METTL14 (Homo sapiens) | < 10 nM
CNc1ccc2ccc(OC[C@H]3O[C@@H](n4cc(-c5cn(C)cn5)c5c(N)ncnc54)[C@@H](F)[C@@H]3O)cc2n1 | METTL3/METTL14 (Homo sapiens) | < 10 nM
CNc1ccc2ccc(OC[C@H]3O[C@@H](n4cc(-c5ccn(C6COC6)n5)c5c(N)ncnc54)[C@@H](F)[C@@H]3O)cc2n1 | METTL3/METTL14 (Homo sapiens) | < 10 nM
CNc1ccc2ccc(OC[C@H]3O[C@@H](n4cc(-c5ncco5)c5c(N)ncnc54)[C@@H](F)[C@@H]3O)cc2n1 | METTL3/METTL14 (Homo sapiens) | < 10 nM
CCc1cc(N)c2ccc(OC[C@H]3O[C@@H](n4cc(-c5ccn(C)n5)c5c(N)ncnc54)[C@@H](F)[C@@H]3O)cc2n1 | METTL3/METTL14 (Homo sapiens) | < 10 nM
CNc1ccc2ccc(OC[C@H]3O[C@@H](n4cc(-c5ccn(C)n5)c5c(N)ncnc54)[C@@H](F)[C@@H]3O)cc2n1 | METTL3/METTL14 (Homo sapiens) | < 10 nM
Cn1ccc(-c2cn([C@@H]3O[C@H](COc4ccc5ccc(N6CCC6)nc5c4)[C@@H](O)[C@@H]3F)c3ncnc(N)c23)n1 | METTL3/METTL14 (Homo sapiens) | < 10 nM
CNc1ccc2ccc(OC[C@H]3O[C@@H](n4cc(-c5cc(C)n(C)n5)c5c(N)ncnc54)[C@@H](F)[C@@H]3O)cc2n1 | METTL3/METTL14 (Homo sapiens) | 10 to 100 nM
CNc1ccc2ccc(OC[C@H]3O[C@@H](n4cc(-c5cnn(C)c5)c5c(N)ncnc54)[C@@H](F)[C@@H]3O)cc2n1 | METTL3/METTL14 (Homo sapiens) | 10 to 100 nM
CNc1ccc2ccc(OC[C@H]3O[C@@H](n4cc(-c5cc(F)cc(F)c5)c5c(N)ncnc54)[C@@H](F)[C@@H]3O)cc2n1 | METTL3/METTL14 (Homo sapiens) | 100 to 1000 nM
CNc1ccc2ccc(OC[C@H]3O[C@@H](n4cc(-c5ccnn5C)c5c(N)ncnc54)[C@@H](F)[C@@H]3O)cc2n1 | METTL3/METTL14 (Homo sapiens) | 10 to 100 nM
